Biological target: human OX2R (Homo sapiens, UniProt O43614)
Construct: expressed in transfected cells; host or cells: CHO (Chinese hamster ovary) cells grown under G418 selection
Sequence (O43614 1-444): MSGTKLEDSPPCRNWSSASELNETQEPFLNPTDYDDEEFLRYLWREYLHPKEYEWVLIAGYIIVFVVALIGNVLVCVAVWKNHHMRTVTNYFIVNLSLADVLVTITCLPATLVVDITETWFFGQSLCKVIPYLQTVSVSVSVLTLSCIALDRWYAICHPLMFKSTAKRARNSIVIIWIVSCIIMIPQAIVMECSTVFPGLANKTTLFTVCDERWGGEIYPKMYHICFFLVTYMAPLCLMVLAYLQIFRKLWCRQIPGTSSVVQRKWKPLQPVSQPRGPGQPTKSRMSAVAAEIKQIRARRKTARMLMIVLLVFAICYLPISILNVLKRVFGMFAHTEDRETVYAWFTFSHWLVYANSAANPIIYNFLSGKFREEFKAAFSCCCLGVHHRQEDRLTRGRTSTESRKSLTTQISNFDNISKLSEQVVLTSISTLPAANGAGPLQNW
Test: IPOne (IP-1 accumulation) assay in CHO cells expressing human OX2R
Assay type: cell-based
Conditions: percent effect vs mean max effect of a reference compound at 1 uM (100% activity vs Orexin A), human OX2R
measured.property: % of maximum agonist effect (relative to Orexin A) (%)

compound: CCN(C(=O)N[C@@H](CCC(C)(F)F)C(F)(F)F)[C@H](C)c1cnc(OC)c(-c2cn3ccnc3c(OC)n2)c1
val: 100.6

compound: CCN(C(=O)NC(C#N)C1CCCC(F)(F)C1)[C@H](C)c1cccc(-c2cn3ccnc3c(OC)n2)c1 (single isomer, unassigned)
val: 100.8

compound: CCN(C(=O)N[C@@H](CCC(F)(F)F)C(F)(F)F)C(c1cnc(SC)c(-c2cc(OC)n3nccc3c2)c1)C(F)(F)F (stereo partly drawn)
val: 98.4

compound: CCN(C(=O)NC(C1CCCOC1)C(F)(F)F)[C@@H](c1cc(-c2cn3cc(C)nc3c(OC)n2)c(OC)cn1)C(F)(F)F (stereo partly drawn)
val: 100.7

compound: CC[C@H](CC(F)(F)F)NC(=O)N(CC)C(c1cc(-c2cn3ccnc3c(OC)n2)c(OC)cn1)C(F)(F)F (stereo partly drawn)
val: 100.1

compound: CC[C@H](CCC(F)F)NC(=O)N(CC)[C@@H](c1cc(-c2cn3cc(C)nc3c(OC)n2)c(OC)cn1)C(F)(F)F
val: 101.0

compound: CCN(C(=O)N[C@@H](C)C(F)(F)F)C(c1cnc(OC)c(-c2cn3ccnc3c(OC)n2)c1)C(F)(F)F (stereo partly drawn)
val: 95.6

compound: CCN(C(=O)N[C@@H](CCC(F)(F)F)C(F)(F)F)[C@@H](c1cc(-c2cc(OC)c3[nH]cnc3c2)c(OC)cn1)C(F)(F)F
val: 99.8

compound: CCN(C(=O)NC(c1cccc(F)c1)C(F)(F)F)[C@@H](c1cccc(-c2cn3ccnc3c(OC)n2)c1)C(F)(F)F (stereo partly drawn)
val: 97.2

compound: CCN(C(=O)N[C@@H](CCC(F)(F)F)C(F)(F)F)C(c1cnc(OC)c(-c2cn3ccnc3c(OC)n2)c1)C(F)(F)F (stereo partly drawn)
val: 100.5

compound: CCN(C(=O)N[C@@H](CCC(F)(F)F)C(F)(F)F)C(c1cc(-c2cn3ccnc3c(OC)n2)c2nccn2c1)C(F)(F)F (stereo partly drawn)
val: 100.1

compound: CCN(C(=O)NC(CC(C)C(F)(F)F)C(F)(F)F)[C@H](C)c1cccc(-c2cn3ccnc3c(OC)n2)c1 (stereo partly drawn)
val: 99.1

compound: CCN(C(=O)N[C@]1(C)C[C@H]1C(F)(F)F)[C@@H](c1cc(-c2cn3ccnc3c(OC)n2)c(OC)cn1)C(F)(F)F
val: 99.0

compound: CCN(C(=O)N[C@@H](CCC(F)(F)F)C(F)(F)F)C(c1cc(-c2cn3ccnc3c(OC)n2)c2occc2n1)C(F)(F)F (stereo partly drawn)
val: 99.9

compound: CCN(C(=O)N[C@H](C)c1cccc(F)c1)[C@H](C)c1cccc(-c2cn3ccnc3c(OC)n2)c1
val: 98.3

compound: C#CCCCC(NC(=O)N(CC)[C@H](C)c1cccc(-c2cn3ccnc3c(OC)n2)c1)C(F)(F)F (stereo partly drawn)
val: 100.5

compound: CC[C@H](CCC(F)(F)F)NC(=O)N(CC)[C@H](C)c1ccc(OC)c(-c2cc(N)c3nccn3c2)c1
val: 98.7

compound: CCN(C(=O)NC(CC(F)F)C(F)(F)F)[C@H](C)c1cccc(-c2cn3ccnc3c(OC)n2)c1 (stereo partly drawn)
val: 100.6

compound: CCC(CCC(F)(F)F)NC(=O)N(CC)[C@H](C)c1cccc(-c2cn3ccnc3cc2OC)c1 (stereo partly drawn)
val: 100.4

compound: CC[C@H](CCC(F)(F)F)NC(=O)N(CC)[C@H](C)c1cccc(-c2cn3ccnc3cc2Cl)c1
val: 94.1

compound: CC[C@H](CCC(F)(F)F)NC(=O)N(CC)[C@H](C)c1ccc(OC)c(-c2cnc3[nH]ccc3c2)c1
val: 96.1

compound: CC[C@H](CCC(F)(F)F)NC(=O)N(CC)[C@H](C)c1ccc(Br)c(-c2ccc3nccn3c2)c1
val: 91.8

compound: CCN(C(=O)NC(C)c1nc(C)no1)[C@@H](c1cc(-c2cn3ccnc3c(OC)n2)c(OC)cn1)C(F)(F)F (stereo partly drawn)
val: 100.5

compound: CCN(C(=O)NCC(F)(F)F)[C@H](C)c1cccc(-c2cn3ccnc3c(OC)n2)c1
val: 94.9

compound: CCN(C(=O)N[C@@H](CCC(F)(F)F)C(F)(F)F)[C@H](C)c1cccc(-c2cc(OC)c3nc(O)cn3c2)c1
val: 89.1

compound: CC[C@H](CCC(F)(F)F)NC(=O)N(CC)[C@@H](c1cc(-c2cn3ccnc3c(OC)n2)c(OC)cn1)C(F)(F)F
val: 99.6

compound: CCN(C(=O)NC(CCC(F)(F)F)COC)[C@@H](c1cc(-c2cn3cc(C)nc3c(OC)n2)c(OC)cn1)C(F)(F)F (stereo partly drawn)
val: 100.1

* * *

Target: human OX2R (Homo sapiens, UniProt O43614)
Construct: expressed in transfected cells; host or cells: CHO (Chinese hamster ovary) cells grown under G418 selection
Test: IPOne (IP-1 accumulation) assay in CHO cells expressing human OX2R
Assay type: cell-based
Details: percent effect vs mean max effect of a reference compound at 1 uM (100% activity vs Orexin A), human OX2R
measured.property: % of maximum agonist effect (relative to Orexin A) (%)

molecule: CCN(C(=O)N[C@@H](CCC(F)(F)F)C(F)(F)F)[C@@H](c1cccc(-c2cn3ccnc3c(OC)n2)c1)C(F)(F)F [Example 2-22]
val: 101.5
--
molecule: CCN(C(=O)N[C@@H](C)C(F)(F)F)[C@@H](c1cc(-c2cn3ccnc3c(OC)n2)c(OC)cn1)C(F)(F)F [Example 2-1]
val: 100.1
--
molecule: CCN(C(=O)N[C@@H](CCC(F)(F)F)C(F)(F)F)C(c1cc(-c2cn3cc(C)nc3c(OC)n2)c(OC)cn1)C(F)F (stereo partly drawn) [Example 2-17]
val: 101.7

* * *

Target: human OX2R (Homo sapiens)
Sequence (O43614 1-444): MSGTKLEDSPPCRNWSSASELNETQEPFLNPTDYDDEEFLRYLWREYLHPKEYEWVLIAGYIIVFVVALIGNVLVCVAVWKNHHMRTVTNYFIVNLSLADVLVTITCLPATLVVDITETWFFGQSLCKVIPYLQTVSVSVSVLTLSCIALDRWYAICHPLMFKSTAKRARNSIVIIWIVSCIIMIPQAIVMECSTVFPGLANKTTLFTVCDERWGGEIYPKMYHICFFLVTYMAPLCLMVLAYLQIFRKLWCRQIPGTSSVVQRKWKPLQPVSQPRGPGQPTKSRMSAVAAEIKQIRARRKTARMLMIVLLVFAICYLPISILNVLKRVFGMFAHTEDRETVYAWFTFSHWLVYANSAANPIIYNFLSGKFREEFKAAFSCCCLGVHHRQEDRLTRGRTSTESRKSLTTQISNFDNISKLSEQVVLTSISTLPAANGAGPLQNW
Test: IPOne (IP-1 accumulation) assay in CHO cells expressing human OX2R
Settings: CHO cells expressing human OX2R; IP-One assay, 2 h incubation; four parameter logistic fit; read-out: OX2R Potency, EC50
pEC50: −log10 of the molar value.
measured.property: pEC50

(P) CCc1cc(-c2cc([C@@H](C)N(CC)C(=O)N[C@@H](CCC(F)(F)F)C(F)(F)F)ncc2OC)cc2ccnn12
(Q) CCC(CCC(F)(F)F)NC(=O)N(CC)[C@H](C)c1cccc(-c2cn3ccnc3cc2OC)c1 (some centres unmarked)
(R) COc1cnc([C@H](N(C(=O)N[C@@H](CCC(F)(F)F)C(F)(F)F)C2CC2)C(F)(F)F)cc1-c1cn2cc(C)nc2c(OC)n1
(S) CCN(C(=O)N[C@@H](CCC(F)(F)F)C(F)(F)F)C(C)c1ccnc(-c2cn3ccnc3c(OC)n2)n1 (some centres unmarked)
input: # rank by pEC50, ascending (min first) A complete answer lists every label in the requested sequence.
output: S, Q, P, R
